The reported measurements were obtained from patent US20250179047A1.

# target-or-system: BCLXL WT (Homo sapiens (Human))
# Sequence (Q07817 other isoform, or with tags, fused parts or gaps): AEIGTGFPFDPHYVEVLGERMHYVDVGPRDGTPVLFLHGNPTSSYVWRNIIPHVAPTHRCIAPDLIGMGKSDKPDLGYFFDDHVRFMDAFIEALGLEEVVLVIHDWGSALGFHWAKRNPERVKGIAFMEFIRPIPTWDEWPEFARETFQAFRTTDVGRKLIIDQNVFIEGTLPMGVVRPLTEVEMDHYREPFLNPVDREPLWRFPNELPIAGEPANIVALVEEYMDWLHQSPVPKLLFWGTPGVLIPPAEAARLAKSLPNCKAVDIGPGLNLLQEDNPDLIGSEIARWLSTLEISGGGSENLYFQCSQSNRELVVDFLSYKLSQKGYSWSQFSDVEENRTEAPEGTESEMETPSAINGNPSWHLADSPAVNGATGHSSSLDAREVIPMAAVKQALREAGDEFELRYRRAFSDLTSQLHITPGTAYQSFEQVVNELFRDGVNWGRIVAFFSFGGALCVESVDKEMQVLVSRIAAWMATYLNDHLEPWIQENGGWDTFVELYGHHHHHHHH
# test: TR-FRET competitive binding assay, BCLXL WT
# recorded-conditions: ratio Ki BCLxL / Ki BCL2 WT
endpoint: TR_FRET EKI BCLxL/WT selectivty ratio

[[record]]
compound = "Cc1c(N(C(=O)c2cc(-c3cc4c(cc3C(=O)N3Cc5ccccc5C[C@H]3CN3CCCCC3)CN(C(=O)Cc3ccc(OCC(C)N5CCOCC5)cc3F)CC4)n(C)c2C)c2ccc(O)cc2)cc(C#N)n1C (single isomer, unassigned) [Example 135]"
reported_measurement = 60.8

[[record]]
compound = "Cc1nn(C)cc1N(C(=O)c1cc(-c2cc3c(cc2C(=O)N2Cc4ccccc4C[C@H]2C)CN(C(=O)Cc2ccc(OCCN4CCOCC4)cc2)CC3)n(C)c1C)c1ccccc1 [Example 188]"
reported_measurement = 769.6

[[record]]
compound = "Cc1c(N(C(=O)c2cc(-c3cc4c(cc3C(=O)N3Cc5ccccc5C[C@H]3C)CN(C(=O)Cc3ccc(N5CCN6CC(F)(F)C[C@H]6C5)cc3F)CC4)n(C)c2C)c2ccc(O)cc2)cc(C#N)n1C [Example 40]"
reported_measurement = 10.3

[[record]]
compound = "CCN(C[C@@H]1Cc2ccccc2CN1C(=O)c1cc2c(cc1-c1cc(C(=O)N(c3ccc(O)cc3)c3cc(C#N)n(C)c3C)c(C)n1C)CCN(C(=O)Cc1ccc(OCCN3CCOCC3)cc1F)C2)C(C)C [Example 155]"
reported_measurement = 39.5

[[record]]
compound = "Cc1c(N(C(=O)c2cc(-c3cc4c(cc3C(=O)N3Cc5ccccc5C[C@H]3C)CN(C(=O)Cc3ccc(OCCN5CCOC6(CCCC6)C5)cc3)CC4)n(C)c2C)c2ccc(O)cc2)cc(C#N)n1C [Example 73]"
reported_measurement = 17.8

[[record]]
compound = "Cc1c(C(=O)N(c2ccc(O)cc2)c2cc(C#N)n(C(F)F)c2C)cc(-c2cc3c(cc2C(=O)N2Cc4ccccc4C[C@H]2CN2CCCCC2)CN(C(=O)Cc2ccc(OCCN4CCN(C)CC4)cc2F)CC3)n1C [Example 160]"
reported_measurement = 55.6

[[record]]
compound = "COc1ncc(N(C(=O)c2cc(-c3cc4c(cc3C(=O)N3Cc5ccccc5C[C@H]3C)CN(C(=O)Cc3ccc(OCCN5CCOCC5)cc3F)CC4)n(C)c2C)c2ccc(O)cc2)cc1F [Example 111]"
reported_measurement = 48.0

[[record]]
compound = "Cc1c(N(C(=O)c2cc(-c3cc4c(cc3C(=O)N3Cc5ccccc5C[C@H]3C)CN(C(=O)Cc3ccc([C@H]5C[C@@H]5N5CCOCC5)cc3F)CC4)n(C)c2C)c2ccc(O)cc2)cc(C#N)n1C (single isomer, unassigned) [Example 70]"
reported_measurement = 20.9

[[record]]
compound = "Cc1c(N(C(=O)c2cc(-c3cc4c(cc3C(=O)N3Cc5ccccc5C[C@H]3CN3CCCCC3)CN(C(=O)Cc3ccc(OCCN5CCO[C@@H](C)C5)cc3)CC4)n(C)c2C)c2ccc(O)cc2)cc(C#N)n1C [Example 150]"
reported_measurement = 70.3


----------
# target-or-system: BCLXL WT (Homo sapiens (Human))
# test: TR-FRET competitive binding assay, BCLXL WT
# recorded-conditions: ratio Ki BCLxL / Ki BCL2 WT
endpoint: TR_FRET EKI BCLxL/WT selectivty ratio

[[record]]
structure = "Cc1c(N(C(=O)c2cc(-c3cc4c(cc3C(=O)N3Cc5ccccc5C[C@H]3C)CN(C(=O)Cc3ccc(OCCN5CCOCC5)cc3)CC4)n(C)c2C)c2ccccc2)cc(C#N)n1C"
target_or_system = "BCLXL WT (Homo sapiens (Human))"
reported_measurement = 52.6

[[record]]
structure = "Cc1ncc(N(C(=O)c2cc(-c3cc4c(cc3C(=O)N3Cc5ccccc5C[C@H]3CN3CCCCC3)CN(C(=O)Cc3ccc(OCCN5CCOCC5)cc3F)CC4)n(C)c2C)c2ccc(O)cc2)cc1C#N"
target_or_system = "BCLXL WT (Homo sapiens (Human))"
reported_measurement = 229.0

[[record]]
structure = "CCN(CC)C[C@@H]1Cc2ccccc2CN1C(=O)c1cc2c(cc1-c1cc(C(=O)N(c3ccc(O)cc3)c3cc(C#N)n(C)c3C)c(C)n1C)CCN(C(=O)Cc1ccc(OCCN3CCOCC3)cc1F)C2"
target_or_system = "BCLXL WT (Homo sapiens (Human))"
reported_measurement = 23.7

[[record]]
structure = "Cc1c(N(C(=O)c2cc(-c3cc4c(cc3C(=O)N3Cc5ccccc5C[C@H]3CN3CCCC3)CN(C(=O)Cc3ccc(OCCN5CCN(CC(F)F)CC5)cc3)CC4)n(C)c2C)c2ccc(O)cc2)cc(C#N)n1C"
target_or_system = "BCLXL WT (Homo sapiens (Human))"
reported_measurement = 110.8

[[record]]
structure = "COc1ccc(N(C(=O)c2cc(-c3cc4c(cc3C(=O)N3Cc5ccccc5C[C@H]3C)CN(C(=O)Cc3ccc(OCCN5CCOCC5)cc3)CC4)n(C)c2C)c2ccccc2)cn1"
target_or_system = "BCLXL WT (Homo sapiens (Human))"
reported_measurement = 264.0

